B1: TPR 5TU (parent)
chain: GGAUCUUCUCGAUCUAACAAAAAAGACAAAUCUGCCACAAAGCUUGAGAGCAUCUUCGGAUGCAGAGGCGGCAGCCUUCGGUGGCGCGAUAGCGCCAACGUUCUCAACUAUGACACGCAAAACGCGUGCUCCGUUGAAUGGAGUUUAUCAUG

Variants of: B1
ASSAY METHOD TEXT: polymerase ribozyme fitness, log enrichment relative to wild type (log ratio); higher = more active; in vitro selection for triplet polymerase activity
Fewer inactive variants are shown than the library holds.
Measured polymerase ribozyme fitness (log ratio) by item
Response field accepts a number only; no unit should be typed.

{"MUTATION CODE": "A60U C132U", "polymerase ribozyme fitness (log ratio)": -0.719}
{"MUTATION CODE": "G94A A110G", "polymerase ribozyme fitness (log ratio)": -2.35}
{"MUTATION CODE": "G81U G92U U148G G152A", "polymerase ribozyme fitness (log ratio)": -3.95}
{"MUTATION CODE": "C8A A142C", "polymerase ribozyme fitness (log ratio)": -4.11}
{"MUTATION CODE": "U90C U104A", "polymerase ribozyme fitness (log ratio)": -4.11}
{"MUTATION CODE": "U33A A37G C105U A106G", "polymerase ribozyme fitness (log ratio)": -4.07}

For G83U A98C A115G , what is its reported polymerase ribozyme fitness (log ratio)?
-1.62
